Please respond with reported clearance for every item in the list.
Experiment: Clearance in Sprague-Dawley rat at 1 mg/kg, iv
Type: ADME, organism-based
Conditions: in vivo
Answers are plain numbers, in mL/min/kg.

[[record]]
smilesstring = "COCCCOc1cc2c(cc1C(C)=O)-c1cc(=O)c(C(=O)O)cn1[C@H](C(C)(C)C)CO2"
readoutvalue = 33


Turning now to a further compound:
Item COCCCOc1cc2c(cc1OC)-c1cc(=O)c(C(=O)O)cn1[C@H](C(C)(C)C)CO2 has what recorded clearance?
28

====

Experiment: Volume of distribution in steady state in C57BL/6 mouse at 1 mg/kg, iv
Format: ADME, organism-based
Conditions: in vivo, read-out: Vdss
Give Vd for every item shown.
Answers are plain numbers, in L/kg.

Below, each entry is followed by its recorded Vd result.
[[record]]
smilesstring = "COCCCOc1cc2c(cc1Cl)-c1cc(=O)c(C(=O)O)cn1[C@H](C(C)C)CO2"
recordedmetric = "Vd"
readoutvalue = 1.7

[[record]]
smilesstring = "COCCCOc1cc2c(cc1OC)-c1cc(=O)c(C(=O)O)cn1[C@H](C(C)(C)C)CO2"
recordedmetric = "Vd"
readoutvalue = 5.8

[[record]]
smilesstring = "COCCCOc1cc2c(cc1C(C)=O)-c1cc(=O)c(C(=O)O)cn1[C@H](C(C)(C)C)CO2"
recordedmetric = "Vd"
readoutvalue = 2.5


From here, focus on the item given below.
Given COCCCOc1cc2c(cc1Cl)-c1cc(=O)c(C(=O)O)cn1[C@H](C(C)(C)C)CO2 , state its recorded Vd.
4.9
